Where do these numbers come from? They come from ChEMBL document CHEMBL1201862.

System: NCI-H460
procedure_summary: NCI tumour cell line growth inhibition, 48 h
Active and inactive are the calls of the source. Cut-off read from the data, not from the text of the source: active = GI50 up to about 1.1 µM and inactive = higher.
Choose one outcome from this list and give only that: active, inactive

Check the results log: what was the call for C=CCN(N=O)C(=O)ON1C(=O)CCC1=O ?
inactive

Check the results log: what was the call for O=C1CSC(C(/N=N/c2ccccc2)=C2Nc3ccccc3N2)=N1 ?
inactive

Check the results log: what was the call for c1ccc(C(C2=Nc3cccc4cccc(c34)N2)c2ccccc2)cc1 ?
inactive

Check the results log: what was the call for O=C1Nc2ccccc2/C1=N/NC(=S)N1CCCCCC1 ?
active

Check the results log: what was the call for CCOc1ccccc1Nc1ccc(N)cc1S(=O)(=O)O ?
inactive

Check the results log: what was the call for N#CC(C#N)=Cc1ccc(CP(=O)(O)O)cc1 ?
inactive

Check the results log: what was the call for C=C1C(=O)O[C@@H]2C=C(C)C3=CC(=O)[C@](C)(C[C@H](OC(=O)/C(C)=C\C)[C@@H]12)O3 ?
inactive

Check the results log: what was the call for CC(=O)NC1C(OCc2ccccc2)OC(CO)C(O)C1OC(C)C(=O)NC(C)C(=O)NC(CCC(=O)NCCCNc1c2ccccc2nc2cccc([N+](=O)[O-])c12)C(N)=O (stereo not given) ?
active

Check the results log: what was the call for CCSc1nc2n(c(=S)n1)CCN2C ?
inactive

Check the results log: what was the call for O=C1c2ccccc2C(=O)N1CC(CN1C(=O)c2ccccc2C1=O)(C(=O)OCc1ccccc1)C(=O)OCc1ccccc1 ?
inactive

----------
Tested on: NCI-H460
procedure_summary: NCI tumour cell line growth inhibition, 48 h
Calls of active or inactive are those of the source. No stated cut-off is given here; in the data, active = GI50 up to about 1.1 µM and inactive = higher.
Choose one outcome from this list and give only that: label 1 (active), label 0 (inactive)

Check the results log: what was the call for Nc1ccc(/N=N/c2ccccc2)cc1 ?
label 0

Check the results log: what was the call for CCN1/C(=C/C#C/C(C)=C\c2sc3ccc(Cl)cc3[n+]2CC)Sc2ccc(Cl)cc21 ?
label 0

Check the results log: what was the call for N#CC12CC3(CCC1CCC1(C2)OCCO1)OCCO3 (configuration not stated) ?
label 0

Check the results log: what was the call for COCCCCCC(=O)CP(=O)(OC)OC ?
label 0

Check the results log: what was the call for Oc1cc2c(cc1C(c1ccc3c(c1)OCO3)N1CCN(C(c3ccc4c(c3)OCO4)c3cc4c(cc3O)OCO4)CC1)OCO2 (configuration not stated) ?
label 0

Check the results log: what was the call for N#CS/C(Cl)=C(/C(Cl)=C(Cl)Cl)[N+](=O)[O-] ?
label 0

Check the results log: what was the call for COC(=O)c1ccccc1C1CN=NC12Cc1cc(C)ccc1C2=O (configuration not stated) ?
label 0

Check the results log: what was the call for CC1=NN(c2cc(Cl)c(S(=O)(=O)O)cc2Cl)C2(C1)C(Cl)C(=O)N2c1nc2ccccc2s1 (configuration not stated) ?
label 0

Check the results log: what was the call for Clc1cccc(-c2nc3cccc4c3n2Cc2ncccc2-4)c1 ?
label 0

Check the results log: what was the call for O=[N+]([O-])c1cccc(/C=N/N=c2\ccc3ccccc3[nH]2)c1O ?
label 1

Check the results log: what was the call for O=c1c2ncn(CCCl)c2n(-c2ccccc2)c(=S)n1-c1ccccc1 ?
label 0

Check the results log: what was the call for CC(Br)C(=O)c1ccc2cc(Br)c3ccccc3c2c1 (configuration not stated) ?
label 0

Check the results log: what was the call for Cc1cc(Cl)cc2c1NC(=O)C2=O.O=C(c1ccccc1)C(F)(F)F ?
label 0

Check the results log: what was the call for Cc1ccccc1C1=[N+]([O-])c2ccccc2C1=O ?
label 0

Check the results log: what was the call for CSc1nc(Cl)c2c(n1)Sc1nc3cc4c(cc3n1C2O)OCCO4 (configuration not stated) ?
label 1

Check the results log: what was the call for O=C(O)C1OC1C(=O)O (configuration not stated) ?
label 0

Check the results log: what was the call for CCC(C)c1cccc(C)c1NC(=O)C(=O)Cc1nc2ccccc2s1 (configuration not stated) ?
label 0

Check the results log: what was the call for [BH3-][P+]1(CC[P@@+]([BH3-])(c2ccccc2)c2ccccc2OC)[C@@H](C)[C@@H](O)[C@H](O)[C@@H]1C (some centres not stated) ?
label 0

Check the results log: what was the call for CC(=O)OCC1OC(OC(C)=O)C(NC#N)C(OC(C)=O)C1OC(C)=O (configuration not stated) ?
label 0

Check the results log: what was the call for COc1ccc(C(O)(c2ccccc2)c2nccc3ccccc23)cc1 (configuration not stated) ?
label 0

Check the results log: what was the call for Cc1cc(OCc2nc(N)nc(N)c2-c2ccc(Cl)c(Cl)c2)ccc1[N+](=O)[O-] ?
label 1

Check the results log: what was the call for NC(Cc1ccc(OCc2ccccc2)cn1)C(=O)O (configuration not stated) ?
label 0

----------
System: PC-3
procedure_summary: NCI tumour cell line growth inhibition, 48 h
Calls of active or inactive are those of the source. Rule as the data show it: active = GI50 up to about 1.1 µM and inactive = higher.
Choose one outcome from this list and give only that: T = active, F = inactive

Check the results log: what was the call for CCOC(=O)N1CCN(c2c(C)nc(C)nc2O)CC1 ?
F

Check the results log: what was the call for CC(Cl)CN1c2ccccc2Sc2ccc(Cl)cc21 (stereo unspecified) ?
F

Check the results log: what was the call for Cc1cc(=O)oc2cc(OCc3c(F)cccc3Cl)ccc12 ?
F

Check the results log: what was the call for COc1cc(C2c3cc4c(cc3OC(NN=C(C)C)C2C)OCO4)cc(OC)c1O (stereo unspecified) ?
F

Check the results log: what was the call for OC1OC(c2ccco2)C(F)(F)C(F)(F)C1(F)F (stereo unspecified) ?
F

Check the results log: what was the call for CC(C)CNC(=O)O ?
F

Check the results log: what was the call for NC(Cc1ccc(OCc2ccccc2)cn1)C(=O)O (stereo unspecified) ?
F

Check the results log: what was the call for O=c1c2ncn(CCCl)c2n(-c2ccccc2)c(=S)n1-c1ccccc1 ?
F

Check the results log: what was the call for NC(=O)/C(=C\c1ccncc1)c1cccc2ccccc12 ?
F

Check the results log: what was the call for CCOC(=O)N1CCN(C(=O)Nc2cccc3ccccc23)CC1 ?
F

Check the results log: what was the call for CC[C@](O)(CC(=O)O[C@H]1C(=O)O[C@@H]2C[C@H]3C(C)=CC(=O)[C@@H](O)[C@]3(C)[C@H]3[C@@]4(O)OC[C@]32[C@@H]1[C@@H](C)[C@H]4O)C(C)C ?
T

Check the results log: what was the call for COC(=O)C1=NN2c3ccccc3CN([C@@H](C)c3ccccc3)C(=O)[C@@H]2C1 ?
F

Check the results log: what was the call for Nc1nc(Cl)cc(Nc2cc(Cl)cc(Cl)c2)n1 ?
F

Check the results log: what was the call for O=c1[nH]/c(=C/c2ccc(OCc3ccccc3)cn2)c(=O)[nH]/c1=C/c1ccc([N+](=O)[O-])cc1 ?
F

Check the results log: what was the call for CCOC(=O)Cn1c(=O)c2nc(SC)sc2n(-c2ccc(C)cc2)c1=S ?
F

Check the results log: what was the call for C=CCN1CCC(O)(c2cc(C(=O)OCC)[nH]c2-c2cc(C)no2)C1 (stereo unspecified) ?
F

Check the results log: what was the call for CCOC(=O)/C=C/[C@H](O)[C@@H](O)/C=C/C(=O)OCC ?
F

Check the results log: what was the call for CC(=O)c1sc2c(c1OC(=O)c1ccccc1)c(=O)n(-c1ccccc1)c(=S)n2-c1ccccc1 ?
F

Check the results log: what was the call for CN(C)C1(c2cc3ccccc3s2)CCCCC1 ?
F

Check the results log: what was the call for COc1ccc2[nH]c3c(C)c4ccnc(NCCCN(C)CCCNc5ccc6nnn7c8ccccc8c(=O)c5c67)c4c(C)c3c2c1 ?
T

Check the results log: what was the call for C=CCN1C(=O)/C(=C/c2cccs2)N=C1SC1OC(COC(=O)c2ccccc2)C(OC(=O)c2ccccc2)C1OC(=O)c1ccccc1 (stereo unspecified) ?
F

----------
Tested on: CCRF-CEM
procedure_summary: NCI tumour cell line growth inhibition, 48 h
The source made the active and inactive calls. Rule as the data show it: active = GI50 up to about 1.1 µM and inactive = higher.
Choose one outcome from this list and give only that: yes (1) (active), no (0) (inactive)

Check the results log: what was the call for CS(=O)(=O)NNS(=O)(=O)c1ccc(F)cc1 ?
no (0)

Check the results log: what was the call for COc1cc2c[n+](C)c3c4cc5c(cc4ccc3c2cc1OC)OCO5 [NITIDINE CHLORIDE] ?
yes (1)

Check the results log: what was the call for O=c1c(C(c2cnc3ccccc3c2)c2c(O)oc3ccccc3c2=O)c(O)oc2ccccc12 ?
no (0)

Check the results log: what was the call for Nc1ccc(/N=N/c2ccccc2)cc1 ?
no (0)

Check the results log: what was the call for CC1(C)CCCCCCCCCC2CC2CCC(C)(C)C1=O (stereo not given) ?
no (0)

Check the results log: what was the call for O=C(O)c1ccc2[nH]c(=O)oc2c1 ?
no (0)

Check the results log: what was the call for O=P1(Oc2ccc(Cl)cc2)OCCS1 (stereo not given) ?
no (0)

Check the results log: what was the call for CC(CO)CCNc1ncnc2c1ncn2CCC(=O)OC(C)(C)C (stereo not given) ?
no (0)

Check the results log: what was the call for O=C(CC(C(=O)c1ccsc1)c1ccccc1)c1cccs1 (stereo not given) ?
no (0)

Check the results log: what was the call for CC1=C(C(=O)NNS(=O)(=O)c2ccc(C)cc2)CC(C(=O)NNS(=O)(=O)c2ccc(C)cc2)=C(C)N1 ?
no (0)

Check the results log: what was the call for COc1cc(S(=O)(=O)Nc2ccc(-c3csc(N4C(=O)C(Cl)C4c4cccs4)n3)cc2)ccc1Cl (stereo not given) ?
no (0)

Check the results log: what was the call for O=C1c2ccccc2C(=O)c2c(NCCNC(=O)C3CCCN3)ccc(NCCNC(=O)C3CCCN3)c21 (stereo not given) ?
no (0)

Check the results log: what was the call for COc1ccccc1N1C(=O)C2c3[nH]c4ccccc4c3C3CCC(C(C)(C)C)CC3C2C1=O (stereo not given) ?
no (0)

Check the results log: what was the call for CCCCC1(OC(=O)CCC(=O)O)CCC2(CCC(C)C(C/C=C(C)/C=C/C(O)C(C)/C=C/C(=O)O)O2)OC1CC/C(C)=C/C(=O)O (stereo not given) ?
no (0)

Check the results log: what was the call for CCOC(=O)/C=C/[C@H](O)[C@@H](O)/C=C/C(=O)OCC ?
no (0)

Check the results log: what was the call for Nc1nc(O)c([I+]c2ccccc2)c(=O)[nH]1 ?
no (0)

Check the results log: what was the call for CCCCC1C(=O)N(c2ccc(S(=O)(=O)Nc3ccccn3)cc2)N(c2ccc(O)c(C(=O)O)c2)C1=O (stereo not given) ?
no (0)

Check the results log: what was the call for C[C@H](CN1CC(=O)NC(=O)C1)N1CC(=O)NC(=O)C1 ?
no (0)

Check the results log: what was the call for CCOC(=O)c1csc(-c2cn(C)c3c2C(=O)C(OC)=CC3=O)n1 ?
no (0)

Check the results log: what was the call for O=C1C2=C(C3=NCCc4c[nH]c1c43)C1(C=C(Br)C(O)C(Br)=C1)CCN2 (stereo not given) ?
no (0)

Check the results log: what was the call for CCCC(C(=O)OC)C1N/C(=N/C#N)N(Cc2ccccc2)C1=O (stereo not given) ?
no (0)

Check the results log: what was the call for O=CN/C=C\c1cc(O)ccc1O ?
no (0)

Check the results log: what was the call for CSc1ccc(NC(=O)C2CCCCC2C(=O)O)cc1 (stereo not given) ?
no (0)

Check the results log: what was the call for O=[N+]([O-])C(=C/C1CCCCC1)/C(=C\C1CCCCC1)[N+](=O)[O-] ?
no (0)

Check the results log: what was the call for COC(=O)[C@@H]1C(=O)O[C@@H](c2ccc3c(c2)OCO3)[C@@H]1C(=O)OC.COC(=O)[C@H]1C(=O)O[C@@H](c2ccc3c(c2)OCO3)[C@@H]1C(=O)OC ?
no (0)

Check the results log: what was the call for O=C1C=CC(=O)c2c(O)ccc(O)c21 ?
yes (1)

Check the results log: what was the call for COC(=O)C(Cc1c[nH]c2ccccc12)NP(=O)(O)OCC1OC(n2cc(I)c(=O)[nH]c2=O)CC1O (stereo not given) ?
no (0)

Check the results log: what was the call for CC1=C(C(=O)Nc2ccccc2C)C(c2ccc(Cl)cc2)C(C(=O)Nc2ccccc2C)=C(C)N1 ?
no (0)

Check the results log: what was the call for CC(=O)OC12OC(C)(C3C(=O)N(c4ccccc4)C(=O)C31)N(c1ccccc1)C2=O (stereo not given) ?
no (0)

Check the results log: what was the call for Cc1ccc2nc3c(C)c(Cl)c(=O)cc-3sc2c1 ?
no (0)

Check the results log: what was the call for N#CC12CC3(CCC1CCC1(C2)OCCO1)OCCO3 (stereo not given) ?
no (0)

Check the results log: what was the call for C=C1C(OC2O[C@@H]3O[C@@]4(C)CC[C@H]5[C@H](C)CC[C@@H](C2=C)[C@@]35O4)O[C@@H]2O[C@@]3(C)CC[C@H]4[C@H](C)CC[C@@H]1[C@@]24O3 (stereo not given in full) ?
no (0)

Check the results log: what was the call for c1ccc(C(C2=Nc3cccc4cccc(c34)N2)c2ccccc2)cc1 ?
no (0)

Check the results log: what was the call for CC(=O)OC1CCn2c1nc1cc([N+](=O)[O-])c(C)cc12 (stereo not given) ?
no (0)

Check the results log: what was the call for C[N+]1(C)CCCC(C#N)(c2ccccc2)CC1 (stereo not given) ?
no (0)

Check the results log: what was the call for Cc1nc2c(nc1C)-c1c(c3c(n1Cc1ccccc1)C(=O)CCC3)C(=O)C2=O ?
no (0)

Check the results log: what was the call for Oc1ccc2ccccc2c1/C=C/c1ccc2c(Br)cc(Br)c(O)c2n1 ?
no (0)

Check the results log: what was the call for CCC(C)c1cccc(C)c1NC(=O)C(=O)Cc1nc2ccccc2s1 (stereo not given) ?
no (0)

Check the results log: what was the call for CCCCCCCCCCC[N+]1(Cc2ccccc2)CC2CCN(Cc3ccccc3)CC2C1 (stereo not given) ?
yes (1)

Check the results log: what was the call for COC(=O)C1CC23C4=C(CCC41)CCC1CN4CC(C)C(CC(OC(C)=O)C12COC(C)=O)C43O (stereo not given) ?
no (0)
